- target-or-test-system: T1, human IL-2Rγ (common cytokine receptor γ-chain) (human, UniProt P31785 23-262, limits assumed)
- T1 construct: Recombinant protein coated on the plate or immobilised on a CM5 chip; also called hu IL-2R; CD132
- T1 sequence: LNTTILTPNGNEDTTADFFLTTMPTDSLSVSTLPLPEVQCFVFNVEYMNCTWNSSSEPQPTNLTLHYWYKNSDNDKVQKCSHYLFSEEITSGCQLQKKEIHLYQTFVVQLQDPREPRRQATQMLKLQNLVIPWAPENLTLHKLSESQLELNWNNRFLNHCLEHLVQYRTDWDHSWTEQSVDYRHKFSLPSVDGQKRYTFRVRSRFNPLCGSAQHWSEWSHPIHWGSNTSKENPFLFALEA
- test-details: SPR off-rate ranking, periplasmic extract on immobilised protein
recorded-metric: koff

Check out these entries, answers already filled in.
FJ1427_P035MP04G08 (VHH, VHH in periplasmic extract; also called clone nr) VHH: QVQLVESGGGWVQVGESLRLSCAPSGRTFVSGIMGWFRQAPGKEREFVARIILNNNSTRYTDSVKGRFTISRDSAKNTMYLQMDSLRPEDTAVYYCAARDRYGSGNSLSPSAYDYWGQGTQVTVSS	0.00892 s⁻¹
29-MP04H02 (VHH, VHH in periplasmic extract; also called FJ1427_P035MP04H02; clone nr) VHH: QVQLVESGGGLVQAGGSLRLACVASGLTFDNYYMGWFRQAPGKEREFVAGIIWNGDHTAYADSIKGRFTISRDNAKNTAYLRMNSLKPEDTAVYYCAATFWIERATTPDIGQYAYWGQGTQVTVSS	0.00625 s⁻¹
FJ1427_P035MP04C02 (VHH, VHH in periplasmic extract; also called clone nr) VHH: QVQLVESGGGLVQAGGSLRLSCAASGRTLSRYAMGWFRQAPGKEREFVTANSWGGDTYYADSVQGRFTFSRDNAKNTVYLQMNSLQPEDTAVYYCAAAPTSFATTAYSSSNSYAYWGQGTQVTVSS	0.00196 s⁻¹

// below: koff requested for another binder
Give the reported koff for this binder. FJ1427_P035MP04A03 (VHH, VHH in periplasmic extract; also called clone nr) VHH: EVQLVESGGGWVQVGESLRLSCAPSGRTFVSGIMGWFRQTPGKEREFVARIILNNNSTRYTDSVKGRFTISRDSAKNTMYLQMNTLRPEDTAVYYCAARDRYGSGNSLSPSAYDYWGQGTQVTVSS
0.00712 s⁻¹

Source listed as patent US20240409645A1.
